# testTarget: HDAC1 (Homo sapiens (Human), UniProt Q13547)
# Sequence (Q13547 whole entry, species assumed): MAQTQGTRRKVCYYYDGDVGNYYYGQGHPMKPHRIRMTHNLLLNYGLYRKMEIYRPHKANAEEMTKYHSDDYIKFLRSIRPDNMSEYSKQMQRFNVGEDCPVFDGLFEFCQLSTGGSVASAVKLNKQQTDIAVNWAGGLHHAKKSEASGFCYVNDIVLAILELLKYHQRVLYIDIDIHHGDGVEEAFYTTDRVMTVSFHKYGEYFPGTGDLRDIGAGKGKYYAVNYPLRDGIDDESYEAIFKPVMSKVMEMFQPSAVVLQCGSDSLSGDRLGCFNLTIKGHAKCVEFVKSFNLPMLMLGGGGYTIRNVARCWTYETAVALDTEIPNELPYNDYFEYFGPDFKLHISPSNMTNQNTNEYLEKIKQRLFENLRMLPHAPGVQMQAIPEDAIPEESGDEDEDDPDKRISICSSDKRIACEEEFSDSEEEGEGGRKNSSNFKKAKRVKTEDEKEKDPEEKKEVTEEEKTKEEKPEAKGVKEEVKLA
# measurementDescription: HDAC inhibitory activity assay (as described in WO2008/062201), HDAC1
# Format: biochemical
# conditionContext: class symbol; read-out: IC50, HDAC1
Provide the recorded IC50 for the entries that follow.

Q: Fill in the blank: the reported IC50 of "Cc1nsc(N(CCCCCCC(=O)NO)c2cccnc2)n1" is ____.
A: < 500 nM

Q: And for "O=C(CCCCCCCN(c1ccc(F)cn1)c1nc(C(F)(F)F)ns1)NO" ?
A: 1000 to 10000 nM

Q: And for "O=C(CCCCCCCN(c1ccccn1)c1nncs1)NO" ?
A: 1000 to 10000 nM

Q: And for "Cc1nsc(N(CCCCCCCC(=O)NO)c2cc(-c3ccc(F)cc3)ccn2)n1" ?
A: 1000 to 10000 nM

Q: And for "Cc1nsc(N(CCCCCCC(=O)NO)c2cc(-c3ccc(F)cc3)ccn2)n1" ?
A: 1000 to 10000 nM

Q: And for "Cc1noc(N(CCCCCCCC(=O)NO)c2ccc(F)cn2)n1" ?
A: 1000 to 10000 nM

Q: And for "O=C(CCCCCCN(c1ccccn1)c1nc(C(F)(F)F)ns1)NO" ?
A: 1000 to 10000 nM

Q: And for "Cn1ccc(N(CCCCCCC(=O)NO)c2cc(-c3ccc(F)cc3)ccn2)n1" ?
A: < 500 nM

Q: And for "Cc1nsc(N(CCCCCCC(=O)NO)c2ccc(F)cn2)n1" ?
A: 500 to 1000 nM

---

# testTarget: HDAC1 (Homo sapiens (Human), UniProt Q13547)
# measurementDescription: HDAC inhibitory activity assay (as described in WO2008/062201), HDAC1
# Format: biochemical
# conditionContext: numeric value; read-out: IC50, HDAC1
readoutLabel: IC50 (nM)
Quick note: give the figure in nM, leave out the unit.

Q: API: value(readout=IC50, system=HDAC1 (Homo sapiens (Human), UniProt Q13547)) for record "Cc1nsc(N(CCCCCCC(=O)NO)c2ccccn2)n1"
A: 226
